# measurement.target: Sphingosine 1-phosphate receptor 5 (Homo sapiens)
# Sequence (Q9H228 whole entry): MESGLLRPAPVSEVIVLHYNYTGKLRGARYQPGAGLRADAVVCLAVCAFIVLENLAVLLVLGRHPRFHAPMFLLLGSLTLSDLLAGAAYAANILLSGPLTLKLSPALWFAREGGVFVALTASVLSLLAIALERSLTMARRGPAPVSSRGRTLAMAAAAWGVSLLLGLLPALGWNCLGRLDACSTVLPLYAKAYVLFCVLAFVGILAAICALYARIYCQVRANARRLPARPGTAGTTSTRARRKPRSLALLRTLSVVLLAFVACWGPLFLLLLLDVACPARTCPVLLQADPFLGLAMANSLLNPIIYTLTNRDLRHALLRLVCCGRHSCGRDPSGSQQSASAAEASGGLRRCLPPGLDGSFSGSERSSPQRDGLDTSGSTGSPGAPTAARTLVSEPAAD
# assay.overview: Concentration required for displacement of [33P]-labeled S1P from human sphingosine 1-phosphate receptor 5 expressed in CHO cells
pIC50: −log10 of the molar value.
readout.label: pIC50

- structure.smiles.string: "CCCCc1ccc(-c2nc(-c3ccc(CN4CC(C(=O)O)C4)cc3)no2)cc1"
  pIC50: 8.62

A. O=C(O)C1CN(Cc2ccc(-c3noc(-c4ccc([C@@H]5CCC(F)(F)C5)cc4)n3)cc2)C1
B. CCCCCCc1ccc(-c2nc(-c3ccc(CN4CC(C(=O)O)C4)cc3)no2)cc1
C. O=C(O)C1CN(Cc2ccc(-c3noc(-c4ccc(C5CCCCC5)cc4)n3)cc2)C1
D. CC(C)Oc1ccc(-c2nc(-c3ccc(CN4CC(C(=O)O)C4)cc3)no2)cc1
Lookup: Sort entries by pIC50 from minimum to maximum value. Please, when replying, give the labels in the order that was requested.
Found: D, B, C, A
(D: 7.92, B: 8.19, C: 9.10, A: 9.40)

1. O=C(O)C1CN(Cc2ccc(-c3noc(-c4ccc(CCC(F)(F)F)cc4)n3)cc2)C1
2. O=C(O)C1CN(Cc2ccc(-c3noc(-c4ccc([C@H]5CCC(F)(F)C5)cc4)n3)cc2)C1
Lookup: I'm curious whether 1 or 2 has the smaller pIC50 number. Which is it? // return label of chosen record
Found: 2

I. O=C(O)C1CN(Cc2ccc(-c3noc(-c4ccc(-c5ccccc5)cc4)n3)cc2)C1
II. CC(C)(C)c1ccc(-c2noc(-c3ccc(CN4CC(C(=O)O)C4)cc3)n2)cc1
Lookup: I'm curious whether I or II has the smaller pIC50 number. Which is it? // return label of chosen record
Found: II
